B1: Ribonuclease HI, P0A7Y4 (parent)
chain: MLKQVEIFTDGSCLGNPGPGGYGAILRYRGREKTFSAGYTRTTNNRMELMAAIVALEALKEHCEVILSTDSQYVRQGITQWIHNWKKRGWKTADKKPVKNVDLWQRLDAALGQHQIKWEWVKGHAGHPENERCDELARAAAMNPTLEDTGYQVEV

variants of: B1; conditions: Escherichia coli (strain K12); pH 3; Thermal; CD; glycine-HCl 10 mM; reversible: yes; structure 2RN2; whole UniProt chain shown
readoutType: change of melting temperature, mutant - wild type (higher = more stable) (°C)

• S68G = -8
• S68V = 1.9
• S68T = -0.7
• S68L = -1.6
• S68A = -1.5

Value source: FireProtDB (doi:10.1111/j.1432-1033.1992.tb16932.x)
